# reported Her2 level; entries follow
Molecular target: Receptor tyrosine-protein kinase erbB-2 (Homo sapiens) (UniProt P04626)
Sequence (P04626 whole entry, looked up): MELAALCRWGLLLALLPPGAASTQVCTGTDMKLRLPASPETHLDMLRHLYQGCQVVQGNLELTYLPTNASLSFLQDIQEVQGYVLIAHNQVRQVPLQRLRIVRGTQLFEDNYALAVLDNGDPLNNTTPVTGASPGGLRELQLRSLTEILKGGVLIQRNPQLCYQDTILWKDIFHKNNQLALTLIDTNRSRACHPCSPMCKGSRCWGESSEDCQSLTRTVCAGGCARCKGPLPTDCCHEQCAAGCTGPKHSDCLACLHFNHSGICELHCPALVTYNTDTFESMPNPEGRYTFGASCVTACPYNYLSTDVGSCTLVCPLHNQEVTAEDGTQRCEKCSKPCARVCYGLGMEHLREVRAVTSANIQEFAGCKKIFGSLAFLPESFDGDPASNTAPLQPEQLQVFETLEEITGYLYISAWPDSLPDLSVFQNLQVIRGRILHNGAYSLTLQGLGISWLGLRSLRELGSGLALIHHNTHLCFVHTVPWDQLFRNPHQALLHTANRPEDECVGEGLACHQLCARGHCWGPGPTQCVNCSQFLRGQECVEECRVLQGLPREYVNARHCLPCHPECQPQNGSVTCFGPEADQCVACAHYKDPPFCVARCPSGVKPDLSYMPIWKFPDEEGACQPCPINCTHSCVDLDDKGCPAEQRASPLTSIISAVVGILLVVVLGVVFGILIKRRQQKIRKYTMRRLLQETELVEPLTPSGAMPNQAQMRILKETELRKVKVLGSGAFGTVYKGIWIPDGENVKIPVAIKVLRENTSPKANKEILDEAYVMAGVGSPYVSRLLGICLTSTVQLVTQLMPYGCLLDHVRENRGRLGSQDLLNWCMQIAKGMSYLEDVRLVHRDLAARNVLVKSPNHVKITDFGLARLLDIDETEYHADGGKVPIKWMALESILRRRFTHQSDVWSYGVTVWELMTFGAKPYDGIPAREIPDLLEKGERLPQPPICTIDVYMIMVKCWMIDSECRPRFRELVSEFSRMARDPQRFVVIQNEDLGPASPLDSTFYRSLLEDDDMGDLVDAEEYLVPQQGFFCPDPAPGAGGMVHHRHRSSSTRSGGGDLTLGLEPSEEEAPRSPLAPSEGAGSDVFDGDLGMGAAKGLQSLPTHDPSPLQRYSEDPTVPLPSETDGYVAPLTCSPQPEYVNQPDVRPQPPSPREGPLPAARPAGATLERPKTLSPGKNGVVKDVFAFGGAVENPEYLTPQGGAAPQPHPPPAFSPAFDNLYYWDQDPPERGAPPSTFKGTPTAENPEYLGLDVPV
Experiment: reducers of endogenous Her2 protein level, primary screen, SKBR3 breast tumor cells, AlphaScreen, ATP viability (AID 461);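 note: lower value means less Her2 protein in the cells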
Details: 18-24 h, at 10 µM, active compounds read low
Could you give me the number in %? Just the number is fine.

Reference set (5 entries):
INSERT INTO results (compound, readout_kind, value_measured) VALUES
  ('O=C(COc1ccc(F)cc1Br)N1CCc2ccccc21', 'Her2 level', 100),
  ('Cc1cc(C)nc(NC(=O)c2c(-c3c(Cl)cccc3Cl)noc2C)n1', 'Her2 level', 98.5),
  ('COc1ccccc1-n1c(C)nnc1SCC(N)=O', 'Her2 level', 113),
  ('CC(C)(C)C(=O)N=C1SC2CS(=O)(=O)CC2N1c1ccc2c(c1)OCO2 (stereo unspecified)', 'Her2 level', 110),
  ('Nc1nnc(SCC(=O)N2CCc3ccccc32)n1-c1ccccc1', 'Her2 level', 80);

Now for another entry.
Value sought: Her2 level, system Receptor tyrosine-protein kinase erbB-2 (Homo sapiens) (UniProt P04626), item C/C(=N\O)C(=O)NCCCNCCCN(C)C . Result: 94.5

This collection of values is drawn from PubChem BioAssay.
